Settings: pH 6.8
# aqueous solubility >= 40 µg/mL gives Yes, anything below gives No

[[record]]
compound = "CC(C)(O)C(=O)N1CCC(c2ccc3c(NCc4ccccc4F)n[nH]c3n2)CC1"
category_label = "No"

[[record]]
compound = "Cc1cc(F)ccc1CC(=O)N[C@@H]1CCOC[C@H]1OCCO"
category_label = "Yes"

[[record]]
compound = "Nc1nc(CN2CCN(c3ccc(F)cc3)CC2)cs1"
category_label = "Yes"

[[record]]
compound = "Cc1cccnc1CNc1ccc(C#N)cc1F"
category_label = "No"

[[record]]
compound = "O=C(Nc1ccccc1-n1ccnc1)c1ccc(F)cc1"
category_label = "Yes"

[[record]]
compound = "CCCn1cnnc1Cn1ccnc1-c1ccc2occc2c1"
category_label = "No"

[[record]]
compound = "O=C1Oc2nc3cc4c(cc3cc2CN1CCN1CCOCC1)OCCO4"
category_label = "Yes"

[[record]]
compound = "O=C(NCCNC(=O)c1cc(-c2ccccc2)nc2ccccc12)c1ccco1"
category_label = "No"

[[record]]
compound = "CC(C)CC(=O)NCC(=O)N1CCCC1"
category_label = "Yes"

[[record]]
compound = "CC(=O)Nc1nc(-c2c(C)cc(C)cc2C)cs1"
category_label = "No"

[[record]]
compound = "CN1C(=O)CCc2cc(NC(=O)C(C)(C)c3ccccc3F)ccc21"
category_label = "Yes"

[[record]]
compound = "Fc1ccc(F)c(-c2nc(C3CCOCC3)nn2-c2cccnc2)c1"
category_label = "No"

[[record]]
compound = "CNC(=O)c1ccc2c(c1)CCO[C@H]2CCN1CCN(c2ccc(C(N)=O)cc2)CC1"
category_label = "Yes"

[[record]]
compound = "CCn1cc(CN2CCC(c3nc(N(C)C)ncc3-c3ccc(OC)cc3)CC2)c(C)n1"
category_label = "Yes"

[[record]]
compound = "CC(C)(C)OC(=O)N1CCNC(=O)C1"
category_label = "No"

[[record]]
compound = "Cc1nnnn1CCN(C)c1ccccc1"
category_label = "No"

[[record]]
compound = "O=C(Nc1nncs1)c1cccnc1"
category_label = "Yes"

[[record]]
compound = "COc1cccc(NC(=O)C2CNC2)c1"
category_label = "No"

[[record]]
compound = "FC(F)(F)COc1ccc(CN2CCc3c(cnn3-c3ccccc3)C2)nn1"
category_label = "Yes"

[[record]]
compound = "C[C@@H]1c2nnn(-c3ncc(F)cn3)c2CCN1C(=O)c1cccc(C(F)(F)F)c1Cl"
category_label = "No"

[[record]]
compound = "CCC(=O)N1CCCC(C(=O)N2CCc3c(Cl)cc(Cl)cc3C2C)C1 (configuration not stated)"
category_label = "Yes"

[[record]]
compound = "O=C(Cc1ccc(F)cc1)NCCn1cccnc1=O"
category_label = "Yes"

[[record]]
compound = "O=C(Nc1ccn(-c2ncccc2Cl)n1)c1csnn1"
category_label = "No"

[[record]]
compound = "CC(C)c1cccc(CN2C(=O)N(C)C3(CCCCC3)C2=O)n1"
category_label = "No"

[[record]]
compound = "CCN1CCc2nc(NC(=O)Cc3ccc(Cl)cc3)sc2C1"
category_label = "Yes"

[[record]]
compound = "Cc1ccc(NS(C)(=O)=O)c(C(=O)N(C)c2ccc3ccccc3c2)c1"
category_label = "Yes"

[[record]]
compound = "CC(=O)N1CCc2cc(Nc3nccc(C(F)(F)F)n3)ccc21"
category_label = "No"

[[record]]
compound = "O=c1c2c(nc3ccccn13)CCN(S(=O)(=O)C1CCCCC1)C2"
category_label = "No"

[[record]]
compound = "CCOc1ccc(C(=O)Nc2cc(C(=O)OC)ccc2N2CCN(C(C)=O)CC2)cc1"
category_label = "No"

[[record]]
compound = "N#Cc1cccc(-c2ccc(=O)n3c2[C@@H]2C[C@@H](CN(Cc4ccc(F)cc4)C2)C3)c1"
category_label = "No"

[[record]]
compound = "CN(Cc1n[nH]c2c1CCCC2)c1nccnc1C#N"
category_label = "No"

[[record]]
compound = "COc1cc2c(cc1OC)CN(C(=O)C1CCCN(C(=O)Nc3ccccc3)C1)CC2 (configuration not stated)"
category_label = "Yes"

[[record]]
compound = "CC1=C(C(=O)OCc2ccc3c(c2)OCO3)C(c2ccccc2)NC(=O)N1 (configuration not stated)"
category_label = "No"

[[record]]
compound = "Cc1cccc(N2CCN(C(=O)c3cncnc3C(C)C)CC2)c1"
category_label = "Yes"

[[record]]
compound = "Cc1cccn(Cc2cccc(F)c2)c1=O"
category_label = "No"

[[record]]
compound = "Cn1c(CNC(=O)Cc2ccccc2)nc2ccccc21"
category_label = "Yes"

[[record]]
compound = "COc1cccc(OCCCn2cncc2-c2cc3c(cc2C)n(C)c(=O)n3C)c1"
category_label = "Yes"

[[record]]
compound = "CC(=O)N1CCN(C(=O)CCc2ccc(-c3ccccc3)[nH]2)CC1"
category_label = "Yes"

[[record]]
compound = "N#Cc1c(N)nc(-c2ccccc2)nc1C(F)(F)F"
category_label = "No"

[[record]]
compound = "CC1(C)O[C@@](C)([C@H]2CC3(CCNCC3)CO2)CC[C@@H]1O"
category_label = "Yes"

[[record]]
compound = "N#Cc1ccccc1OCn1nnc2ccccc2c1=O"
category_label = "No"

[[record]]
compound = "Nc1nc(N)c2nc(-c3cccc(O)c3)c(-c3cccc(O)c3)nc2n1"
category_label = "No"


###

Listed here: items and their measured intrinsic clearance, rat liver microsomes.
Outcome measure: intrinsic clearance, rat liver microsomes (mL/min/kg)

[[record]]
structure_as_smiles = "COC[C@@H](O)Cn1c(C)nc2ccccc21"
relation_sign = "≤"
assay_value = 10.7

[[record]]
structure_as_smiles = "C#CCNC(=O)Cc1coc2cc(OC)ccc12"
relation_sign = "="
assay_value = 183

[[record]]
structure_as_smiles = "Cc1cc(-c2nccs2)nc(CC2CCNCC2)n1"
relation_sign = "="
assay_value = 38.8

[[record]]
structure_as_smiles = "Cc1cc(C)n(-c2ccc(CNC(=O)c3ccc4c(c3)CCO4)cn2)n1"
relation_sign = "="
assay_value = 106

[[record]]
structure_as_smiles = "O=C(c1ccncc1)N1CCC(c2cnccn2)CC1"
relation_sign = "≤"
assay_value = 10.7

[[record]]
structure_as_smiles = "CC(C)CCN1CCC(CNS(C)(=O)=O)CC1"
relation_sign = "≤"
assay_value = 10.7

[[record]]
structure_as_smiles = "Cc1ccc2[nH]c(CNC(=O)c3ncoc3C)nc2c1C"
relation_sign = "="
assay_value = 244

[[record]]
structure_as_smiles = "Nc1ccccc1-c1nc(C2CC2)no1"
relation_sign = "="
assay_value = 754

[[record]]
structure_as_smiles = "Cc1cccnc1NC(=O)CCn1cnc2ccccc21"
relation_sign = "≤"
assay_value = 10.7

[[record]]
structure_as_smiles = "CCC(C)(C)c1ccc(Oc2ccc(NC3=NN(c4ccccc4)C(=O)C3)cc2)cc1"
relation_sign = "="
assay_value = 17.1

[[record]]
structure_as_smiles = "CCN(Cc1cnn(C(C)C)c1)C(=O)NCCC(C)(C)OC"
relation_sign = "="
assay_value = 163

[[record]]
structure_as_smiles = "CCOCCC(=O)N1CCC2(CCCN(C)CC2)CC1"
relation_sign = "="
assay_value = 30.6

[[record]]
structure_as_smiles = "COc1ccc(CNCc2cccc3ccccc23)cc1"
relation_sign = "="
assay_value = 620


###

The following compounds are shown together with reported MDR1-MDCK efflux ratio values.
Outcome measure: MDR1-MDCK efflux ratio

[[record]]
structure_as_smiles = "Cc1cc(C(=O)NCC2CC2)n2nccc2n1"
outcome_measure = "MDR1-MDCK efflux ratio"
assay_value = 0.576

[[record]]
structure_as_smiles = "Cc1nn(C)c(C)c1NC(=O)CN1CCN(c2nccs2)CC1"
outcome_measure = "MDR1-MDCK efflux ratio"
assay_value = 18.9

[[record]]
structure_as_smiles = "Cn1cc(CN2CCN(c3ccccc3O)CC2)c(-c2ccncc2)n1"
outcome_measure = "MDR1-MDCK efflux ratio"
assay_value = 2.69

[[record]]
structure_as_smiles = "COc1ccc(C(C)(C)C)cc1NC(=O)C1(C#N)CCCC1"
outcome_measure = "MDR1-MDCK efflux ratio"
assay_value = 0.478

[[record]]
structure_as_smiles = "CCC1=C(C)CN(C(=O)NCCc2ccc(S(=O)(=O)NC(=O)N[C@H]3CC[C@H](C)CC3)cc2)C1=O"
outcome_measure = "MDR1-MDCK efflux ratio"
assay_value = 68.6

[[record]]
structure_as_smiles = "CNc1ncc(-c2nc(C3(c4ccccc4)CC3)nn2C(C)(C)C)cn1"
outcome_measure = "MDR1-MDCK efflux ratio"
assay_value = 0.995


###

Readings of aqueous solubility for the listed compounds
Conditions: pH 6.8
Outcome measure: aqueous solubility (µg/mL)

[[record]]
compound = "Cc1oc(C)c(C(=O)N(C)Cc2ccccc2N2CCOCC2)c1C"
value_units = "µg/mL"
assay_value = 61.8

[[record]]
compound = "CC(C)(C)c1nc(Cn2nnc3ccccc3c2=O)no1"
value_units = "µg/mL"
assay_value = 34.7

[[record]]
compound = "CCCS(=O)(=O)Nc1ccc(F)c(C(=O)c2c[nH]c3ncc(-c4ccc(Cl)cc4)cc23)c1F"
value_units = "µg/mL"
assay_value = 0.35

[[record]]
compound = "Cc1cc(N(C)Cc2ccc(N)nc2)nc(-c2ccncc2)n1"
value_units = "µg/mL"
assay_value = 28.9

[[record]]
compound = "Cc1ncccc1CNc1nnc(C(C)(C)C)s1"
value_units = "µg/mL"
assay_value = 40.9

[[record]]
compound = "Cc1ncsc1C(=O)N1C[C@@H]2CCCN(C(=O)c3scnc3C)[C@@H]2C1"
value_units = "µg/mL"
assay_value = 75.9

[[record]]
compound = "Cc1cc2cc(C(=O)N(C)CCC(=O)O)oc2cc1C"
value_units = "µg/mL"
assay_value = 47

[[record]]
compound = "Cc1nc(-c2cnn(C)c2-c2ccc(C(F)(F)F)cn2)c2c(N3CCC3)ncnn12"
value_units = "µg/mL"
assay_value = 65.1

[[record]]
compound = "CN(C)c1cccc(C(=O)N2CCCC(c3cccc(-c4cccs4)n3)C2)c1 (configuration not stated)"
value_units = "µg/mL"
assay_value = 2.1

[[record]]
compound = "CCC(=O)NCc1ccnc(N(C)C)c1"
value_units = "µg/mL"
assay_value = 30.6

[[record]]
compound = "O=C(Nc1ccc(Cl)cn1)C1(c2cccc(Cl)c2)CC1"
value_units = "µg/mL"
assay_value = 0.33

[[record]]
compound = "COc1cc2nc(N)sc2cc1OC"
value_units = "µg/mL"
assay_value = 32.6

